- Assay comment: yeast display, Sf9 membrane polyspecificity reagent, FACS + sequencing; frameworks hold sequencing errors
Measure: polyreactivity (PSR sort gate)

{"columns": ["Sequence chain", "Observed value"],
 "data": [
  ["QVQLVESGGGLVQAGGSLRLSCAASGIIFYDYAMGWYRQAPGKERELVAAISRSGGSTYYADSVKGRFTISRDNATNTVYLQMNSLKPEDTAVYYCNADEVVWGYNYWGQGTQVTVSS", "low polyreactivity"],
  ["QVQLVESGGGLVQAGGSLRLSCAASGFIFLYYAMGWYRPAPGKEGELVAAISRSGGRTYYADSVKGRFTISRDNAKNTVYLQMNSLKPEDTAGYYCAARSARTSSFPIFYYWGQGTQVTVSS", "high polyreactivity"],
  ["QVQLVESGGGLVQAGGSLRLSCAASGRTFPVYAMGWYRQAPGKERELVAAIRGRSVRTYYADSVNGRFTISRDNAKNTVYLQMNSLKPEDTAVYYCAAYYFNPGMDYWGQGTQVTVSS", "high polyreactivity"],
  ["QVQLVESGGGLVQAGGSLRVSCAASGLTFGDYTMGWYRQAPGKERELVAAISTAGGSTYYADSVKGRFTISREHANNTVYLHMNSLKPEDTAVYYCNARRTHTRSHYYYWGQGTQVTVSS", "high polyreactivity"],
  ["QVQLVESGGGLVQGGGSLRLSCADSGSTFSSNAMGWYRQAPGKERELVAAITGSGGRTYYADSVKRRFTISRDNAKNTVYLQMNCLKPEDTAVYYCAKRYRGGYWGQGTQVTVSS", "high polyreactivity"],
  ["QVQLVESGGGLVQAGGSLRLSCAASGRIFKKNAMGWYRQAPGKERELVATITQRGGTTYYADSVKGRFTISRDNAKNTVYLQMNSLKPEDTAVYYCATEGYETWSYWYRGAYTYYYWGQGTQVTVSS", "high polyreactivity"],
  ["QVQLVESGGGLVQPGGSLRLSCAASGGTFQPNAMVWYRQAPGKERELVAAISWSDGSTYYADSVKGRFTISLDNAKNTVYLQMNSLKPVDTAVYYCAADFTYYDSPYRDYNYESWGQGTQVTVSS", "low polyreactivity"],
  ["QVQLVESGGGLVQAGGSLRLSCAASGFIFNYYTMGWYRQAPGKEREFVAAIRRSGTRTYYADSVKGRFTISRDNAKNTVYLQMNSLKPEDTAVYYCAARGTSPGHGTYTRTRGQRYYYWGQGTQVTVSS", "high polyreactivity"],
  ["QVQLVESGGGLVQAGGSLRLSCAASGFIIDCYAMGRYRQAPGKERELVAVISQRGSNTYYADSVKGRFTISRDHAKNTVYLQMNSLKPEDTAVYYCAARYKQGDSTGGRMNYWGQGTQVTVSS", "high polyreactivity"],
  ["QVQLVESVGGLVQAGGSLRLSCAASGFIFASYAMGWYRQAPGKERELVAAISWRGGSTYYADSVKGRFTISRDNAKNTVYLQMNSLKPEDTAVYYCKAYVYVGTGRGYDTLDYWGQGTQVTLSS", "low polyreactivity"],
  ["QVQLVESGGGLVQAGGSLRLSCSASGRTFSWYAMGWYRKAPGKERELVAAISYSGGSTYYADSVKGRFTISRDNAKNTVYLQMNSLKPEDTAVYYCARTRRHSQNFDYWGQGTQVIVSS", "high polyreactivity"]
]}

* * *

- Assay comment: yeast display, Sf9 membrane polyspecificity reagent, FACS + sequencing; frameworks hold sequencing errors

{"columns": ["Sequence chain", "polyreactivity (PSR sort gate)"],
 "data": [
  ["QDQLVESAGGLVQAGGSLRLSCAASASIFVSYAMGWYRQAPGKERELVAAITRSGGSTYYSDSVKGRFTISRDNAKYTVYLQMNSLKPDDTAVYYCAARSYLGAYRRFYWGQGTQVTVSS", "high polyreactivity"],
  ["QVQLVESGGGLVQAGGSLRLSCAASGSIFSKNAMGWYRQAAGKEWEWVAAISRSAGSTYYADSVKGRFTISRDNAKNTVYLQMNSLKPEDTAVYYCAAEGYRWVTAYYDYDEDYWGQGTQVTVSS", "low polyreactivity"],
  ["QVQLVESGGGLVQAGGSLRLSCAASGSMFSVYAMGGYRQAPGKEMELVAAISRSGGSTYYADSVKGRFTISRDTAKNTVYLQMNSLKPEDTAVYYCAARLAGRGSSSSRVVRTGGYWGQGTQVTVSS", "high polyreactivity"],
  ["QVQLVESGGGLVQAGGSLRLSCAASGSIFWEYAMGWYRQAPGKDREFVATISARGGRTYYADSVKGRFTSSRDNAKNTVYLQMNSLKPDATAVYYCANVGVFHLRDNYRFDYWGQGTQVTVSS", "low polyreactivity"],
  ["QVQLVESGGGLVQAGGSLRLSCAASGITLYWYAMGWYRPAPGKERELVAAISRRGGTTYYADSVKGRFTISRDNAKNTVYLQMNSLKPEDTAVYYCAKAPDTQTSWSRQEGNYWGQGTQVTVSS", "low polyreactivity"]
]}
